meta.source: PubChem BioAssay (NCATS)

Each record here notes measured viability, percent of control.
experiment: Cell Proliferation Assay against the HBL1 Cell Line (AID 651646); settings: HBL1 DLBCL cells; at 46.1 µM (top of the series);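 also: cells exposed to compound for 48 h before reading; 100% = DMSO and 0% = 9.2 µM bortezomib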
A bare number is not enough; add the unit after it.

O=C(C=Cc1cccnc1)NCCCCC1CCN(C(=O)c2ccccc2)CC1 | 53.4%
CC(C)[C@H](C(=O)Nc1ccc(C(=O)NO)cc1)c1ccccc1 | 0.0861%

Name the reported viability, percent of control value associated with the compound "Nc1ccccc1NC(=O)c1ccc(CNc2nccc(-c3cccnc3)n2)cc1"
4.64%

Can you share its viability, percent of control? I mean this compound: "Cn1cncc1[C@@](N)(c1ccc(Cl)cc1)c1ccc2c(c1)c(-c1cccc(Cl)c1)cc(=O)n2C"
1.3%

// returns reported viability, percent of control for input "CC1(C)CCC(c2ccc(Cl)cc2)=C(CN2CCN(c3ccc(C(=O)NS(=O)(=O)c4ccc(N[C@H](CCN5CCOCC5)CSc5ccccc5)c(S(=O)(=O)C(F)(F)F)c4)cc3)CC2)C1"
3.35%

---

test: qHTS of pediatric cancer cell lines to identify multiple opportunities for drug repurposing: Confirmatory screen for Rh18 cells (AID 1347125); conditions: Rh18 rhabdomyosarcoma cells, viability; series mostly up to 45.9 µM;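 also: cells exposed to compound for 48 h; nearly all actives have a fitted effect of over 55% in size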
Results filed as inconclusive are left out. Calls of active or inactive are those of the source. The call rests on the fitted dose curve; in most records, active means well fitted cell-killing curve with a large enough effect; inconclusive means small, poorly fitted or top-dose-only effect, or effect the other way; inactive means flat fitted curve, though single readings scatter.
Your response should consist of one outcome taken from active, inactive

Below are worked cases with known answers.
CC1(C)OC2=C(C(=O)c3ccccc3C2=O)[C@H](NCc2ccccc2)[C@H]1O | active
Cc1c(Cn2c(C)nc3c(C(=O)O)cc(N4CCOCC4)cc32)cccc1C(F)(F)F | inactive
COCCn1c2c([n+](Cc3cnccn3)c1C)C(=O)c1ccccc1C2=O | active

Lab log entry: "NC(=O)c1cccc2cn(-c3ccc([C@@H]4CCCNC4)cc3)nc12" — outcome as called in the assay?
inactive

Tell me the recorded outcome of this test for "Cc1cnc(-c2cnc(NCCNc3ccc(C#N)cn3)nc2-c2ccc(Cl)cc2Cl)[nH]1" .
inactive

Assay result, entry "Cc1cnc(Nc2ccc(F)cc2Cl)nc1-c1c[nH]c(C(=O)N[C@H](CO)c2cccc(Cl)c2)c1" — outcome?
inactive

Test call for this compound, please: "C=C1C(=CC=C2CCC[C@]3(C)[C@@H]([C@H](C)C=C[C@H](C)C(C)C)CC[C@@H]23)C[C@@H](O)C[C@@H]1O"
inactive

What did this assay record as the result for "CC(C)(C)NC(=O)[C@H]1CN(Cc2cccnc2)CCN1C[C@@H](O)C[C@@H](Cc1ccccc1)C(=O)N[C@H]1c2ccccc2C[C@H]1O" ?
inactive

Assay outcome for CC(NCc1ccc2c(c1)nc(NC(=O)c1ccc(-c3cn[nH]c3)s1)n2CC(C)(C)O)C(C)(C)C (centres undefined) : what was it?
active

Please let me know the test result on file for "CC[C@@]1(O)C(=O)OCc2c1cc1n(c2=O)Cc2cc3cc(O)ccc3nc2-1" .
active

Answer briefly: the call reported for "NCC(=O)Nc1ccc(-n2nc(C(F)(F)F)cc2-c2ccc3c(ccc4ccccc43)c2)cc1" in this assay.
active

Tell me the assay call for "CNC(=O)c1nn(C)c2c1C(C)(C)Cc1cnc(Nc3ccc(N4CCN(C)CC4)cc3)nc1-2" please.
active

Tell me the recorded outcome of this test for "Cc1nc2ccc(CN(C)c3ccc(C(=O)N[C@@H](CCC(=O)O)C(=O)O)s3)cc2c(=O)[nH]1" .
inactive

Test call, this compound: "CC(C)(C)OC(=O)Nc1ccc(-c2cc(C(=O)NCCCCCCC(=O)NO)no2)cc1"
active

GET /call?item= "Cc1nc2cnc3ccc(C#Cc4cccnc4)cc3c2n1-c1ccc(C(C)(C)C#N)cc1" returns the recorded outcome of this test.
active

For "C=CC(=O)Nc1cc2c(Nc3ccc(F)c(Cl)c3)ncnc2cc1C#CC(C)(C)N1CCN(C)CC1" , what call appears in the results of this test?
active

Per the assay record, what outcome was assigned to "C[C@@]12O[C@@H](C[C@]1(O)CO)n1c3ccccc3c3c4c(c5c6ccccc6n2c5c31)CNC4=O" ?
active

Record request — test call for "C=CC(=O)Nc1cccc(Oc2nc(Nc3ccc(N4CCN(C)CC4)cc3OC)ncc2Cl)c1"
active

What outcome does the record of this test show for "CCOc1cc2ncc(C#N)c(Nc3ccc(F)c(Cl)c3)c2cc1NC(=O)C=CCN(C)C" ?
inactive

---

experiment: Quantitative High-Throughput drug screen in 47 multiple myeloma cell lines against the NCATS MIPE library collection: PE2_PLB cell viability assay (AID 1919869); conditions: PE2_PLB myeloma cells viability, ATP luminescence, 48 h; series mostly up to 45.8 µM; also: potency is read from the fitted curve at half-maximal effect; nearly all actives have a fitted effect of over 35% in size
Records with an inconclusive call do not appear. Calls of active or inactive are those of the source. Calls follow the shape of the dose curve; as a rule, active = well fitted cell-killing curve with a large enough effect; inconclusive = small, poorly fitted or top-dose-only effect, or effect the other way; inactive = no such curve, though single readings can be large or run the other way.
We begin with a simple list: items and their reported Potency.

CC(C)c1cc(-c2n[nH]c(=O)n2-c2ccc3c(ccn3C)c2)c(O)cc1O | 0.0372 µM (active)

For "Cc1ccc(-c2ncn(-c3ccc(Nc4nccc(-c5cccc(N6CCOCC6)c5)n4)cc3)n2)cn1" , what is its reported Potency?
0.372 µM (active)

What value of Potency has been reported for the following compound? "Cn1cc(-c2ccncc2)c(-c2ccc(OCc3ccc4ccccc4n3)cc2)n1"
5.9 µM (active)

Request the reported Potency associated with "CC(C)CC(=O)Nc1n[nH]c2c1CN(C(=O)C1CCN(C)CC1)C2(C)C"
2.09 µM (active)

Fill in the blank: the reported Potency of "Cc1c(NC(=O)OC[C@@H]2COCCN2)cn2ncnc(Nc3ccc4c(cnn4Cc4cccc(F)c4)c3)c12" is ____.
5.26 µM (active)

Item "Cc1cn2c(-c3cn[nH]c3)cnc2c(Nc2ccc(C(=O)N3CCNCC3)cc2F)n1" has what recorded Potency?
20.9 µM (active)

Would you kindly share the measured Potency for "Cc1cc(CN2CCN(c3c(Br)cnc4nc(-c5ccc(N6CCN(C)CC6)cc5)[nH]c34)CC2)no1" ?
6.62 µM (active)

Can you share its Potency? I mean this compound: "Cn1cncc1[C@@](N)(c1ccc(Cl)cc1)c1ccc2c(c1)c(-c1cccc(Cl)c1)cc(=O)n2C"
16.6 µM (active)

Consider the compound "CC1(C)O[C@@H]2C[C@@H]3[C@H]4C[C@@H](F)C5=CC(=O)C=C[C@]5(C)[C@@]4(F)[C@@H](O)C[C@]3(C)[C@]2(C(=O)CO)O1" and give its measured Potency.
1.18 µM (active)

Returns the measured Potency for the input compound. Input: "C[C@]1(CO)CN(c2cc(C(=O)Nc3ccc4c(c3)-c3c(c(C(N)=O)nn3-c3ccc(F)cc3)CC4)c(Cl)cn2)C[C@@]1(C)CO"
11.8 µM (active)

---

test: qHTS to identify inhibitors of the type 1 interferon - major histocompatibility complex class I in skeletal muscle: primary screen against the NCATS Mechanism Interrogation Plate v5.0 (MIPE) Libary (AID 1347411); conditions: iHSKM cells + IFN-b, HiBiT-tagged MHC-I luminescence, 24 h; series mostly up to 45.8 µM; also: nearly all actives have a fitted effect of over 65% in size
Inconclusive results are not listed. Active and inactive are the calls of the source. Calls come from the whole dose curve; as a rule, active = well fitted inhibition curve with a large enough effect; inconclusive = small, poorly fitted or top-dose-only effect; inactive = no such curve, though single readings can be large or run the other way.
Write down the outcome that applies. Available outcomes: active, inactive

Hello, I am checking results. What call was entered for "CCc1c2c(nc3ccc(O)cc13)-c1cc3c(c(=O)n1C2)COC(=O)[C@]3(O)CC" ?
active

GET /call?item= "CC(=O)c1c(C)c2cnc(Nc3ccc(N4CCNCC4)cn3)nc2n(C2CCCC2)c1=O" returns the recorded outcome of this test.
active

Entry "O=C(O)[C@H](Cc1c[nH]c2ccccc12)N1C(=O)c2ccccc2C1=O" : call = ?
inactive

Recorded test outcome, item "O=C(Nc1cn[nH]c1-c1nc2ccc(CN3CCOCC3)cc2[nH]1)NC1CC1"
active

Please indicate how the test categorized "Cc1nc2cnc3ccc(C#Cc4cccnc4)cc3c2n1-c1ccc(C(C)(C)C#N)cc1" .
active

---

assay: qHTS of pediatric cancer cell lines to identify multiple opportunities for drug repurposing: Primary screen for U-2 OS cells (AID 1347096); conditions: U-2 OS viability, CellTiter-Glo luminescence, 48 h; series mostly up to 46 µM; also: nearly all actives have a fitted effect of over 50% in size
Records with an inconclusive call do not appear. Active and inactive are the calls of the source. Calls follow the shape of the dose curve; as a rule, active = well fitted cell-killing curve with a large enough effect; inconclusive = small, poorly fitted or top-dose-only effect; inactive = flat fitted curve, though single readings scatter.
Bench note: report the call from yes (1) = active, no (0) = inactive

Check out these entries, answers already filled in.
Nc1ccc(C(=O)c2cc3c(ccc4ccccc43)[nH]2)cc1 | no (0)
Nc1nc(Nc2ccc(S(N)(=O)=O)cc2)nn1C(=O)c1c(F)cccc1F | no (0)
COCCn1c2c([n+](Cc3cnccn3)c1C)C(=O)c1ccccc1C2=O | yes (1)

Tell me the assay call for "CNC(=O)c1nn(C)c2c1C(C)(C)Cc1cnc(Nc3ccc(N4CCN(C)CC4)cc3)nc1-2" please.
yes (1)

Recorded test call requested for "Cc1cn2cc(C(=O)N(C)CCO)cc(N[C@@H]3CCOc4cccc(C)c43)c2n1"
no (0)

---

assay: Quantitative High-Throughput drug screen in 47 multiple myeloma cell lines against the NCATS MIPE library collection: Karpas25_ECACC cell viability assay (AID 1918968; also: potency is read from the fitted curve at half-maximal effect; nearly all actives have a fitted effect of over 35% in size); conditions: Karpas25 myeloma viability, CellTiter-Glo ATP, 48 h; series mostly up to 45.8 µM
Records with an inconclusive call do not appear. The source made the active and inactive calls. The call rests on the fitted dose curve; in most records, active means well fitted cell-killing curve with a large enough effect; inconclusive means small, poorly fitted or top-dose-only effect, or effect the other way; inactive means no such curve, though single readings can be large or run the other way.
Your answer must be one of the following: active, inactive

See these solved cases before continuing.
CN(c1ncccc1CNc1nc(Nc2ccc3c(c2)CC(=O)N3)ncc1C(F)(F)F)S(C)(=O)=O | active
Cc1cn2c(-c3cn[nH]c3)cnc2c(Nc2ccc(C(=O)N3CCNCC3)cc2F)n1 | active
COc1cc2c(Oc3ccc(NC(=O)C4(C(=O)Nc5ccc(F)cc5)CC4)cc3F)ccnc2cc1OCCCN1CCOCC1 | active
COc1cc2ncn(-c3cc(OCc4ccccc4C(F)(F)F)c(C(N)=O)s3)c2cc1OC | active

What classification did "CC(C)(C)NC(=O)[C@H]1CN(Cc2cccnc2)CCN1C[C@@H](O)C[C@@H](Cc1ccccc1)C(=O)N[C@H]1c2ccccc2C[C@H]1O" end up with in this test?
active

Any idea what this test logged for CCOC(=O)C1=C(C)NC2=C(C(=O)CC(C)(C)C2)C1c1ccc(-c2ccccc2)cc1 (stereo not given) ?
active

Test call, this compound: "COc1cccc2nc(-c3cccs3)nc(NN3C(=O)C=C(C)C3=O)c12"
active
